Test system: ZEAMX (Corn, Field)
Experiment: Preemergence herbicidal evaluation
Type: in vivo, Zea mays
Applied conditions: rate 0.1250 kg/ha; rated 4-5 weeks after treatment
From the text: Results of herbicide evaluation are expressed on a rating scale (0-9). The scale is based upon a visual observation of plant stand, vigor, malformation, size, chlorosis and overall plant appearance as compared with a control. […] The compounds evaluated are reported by compound number given in Example 37.
Measured endpoint: Preemergence herbicidal rating ZEAMX
Answer with a number only.

CCOC(=O)CN1C(=O)C(Cc2ccccc2OC(C)C(=O)O)S/C1=N/c1cc(-n2c(=O)cc(C(F)(F)F)n(C)c2=O)c(F)cc1Cl (stereo not shown) [Compound 114]    1.0

Please state recorded Preemergence herbicidal rating ZEAMX (tested on ZEAMX (Corn, Field)) of CCOC(=O)CN1C(=O)C(CC(=O)O)O/C1=N/c1cc(-n2c(=O)cc(C(F)(F)F)n(C)c2=O)c(F)cc1Cl (stereo not shown) [Compound 41]
0.0

Please state recorded Preemergence herbicidal rating ZEAMX (tested on ZEAMX (Corn, Field)) of Cn1c(C(F)(F)F)cc(=O)n(-c2cc(N=C3SCC(=O)N3CC(=O)NS(C)(=O)=O)c(Cl)cc2F)c1=O [Compound 38]
0.0

Please state recorded Preemergence herbicidal rating ZEAMX (tested on ZEAMX (Corn, Field)) of COC(=O)CCN1C(=O)CSC1=Nc1cc(-n2c(=O)cc(C(F)(F)F)n(C)c2=O)c(F)cc1Cl [Compound 28]
9.0

* * *

Test system: CYPSE (Flatsedge)
Experiment: Preemergence weed control under flooded paddy conditions
Format: in vivo, Cyperus serotinus
Applied conditions: 0.0625 kg/ha, rated 3-4 weeks after treatment
Measured endpoint: CYPSE herbicidal effect rating
Answer with a number only.

Recorded CYPSE herbicidal effect rating, per entry:
CCOC(=O)CN1C(=O)C(CC(=O)OC(C)C(=O)OCC)S/C1=N/c1cc(-n2c(=O)cc(C(F)(F)F)n(C)c2=O)c(F)cc1Cl (stereo not drawn)    0.0
COC(=O)CC1SC(=Nc2cc(-n3c(=O)cc(C(F)(F)F)n(C)c3=O)c(F)cc2Cl)N(C)C1=O (stereo not drawn)    5.0

Given "COCCOC(=O)CN1C(=O)CSC1=Nc1cc(-n2c(=O)cc(C(F)(F)F)n(C)c2=O)c(F)cc1Cl" , state its recorded CYPSE herbicidal effect rating.
0.0

Given CCOC(=O)CN1C(=O)C(CC(=O)OCCF)SC1=Nc1cc(-n2c(=O)cc(C(F)(F)F)n(C)c2=O)c(F)cc1Cl (stereo not drawn) , state its recorded CYPSE herbicidal effect rating.
0.0

Given CCOC(=O)CN1C(=O)C(CC(=O)NS(=O)(=O)c2ccccc2)SC1=Nc1cc(-n2c(=O)cc(C(F)(F)F)n(C)c2=O)c(F)cc1Cl (stereo not drawn) , state its recorded CYPSE herbicidal effect rating.
0.0

Given C#CCOC(=O)CC1SC(=Nc2cc(-n3c(=O)cc(C(F)(F)F)n(C)c3=O)c(F)cc2Cl)N(CC(=O)OCC)C1=O (stereo not drawn) , state its recorded CYPSE herbicidal effect rating.
0.0

Given C=CCN1C(=O)C(CC(=O)NOC)SC1=Nc1cc(-n2c(=O)cc(C(F)(F)F)n(C)c2=O)c(F)cc1Cl (stereo not drawn) , state its recorded CYPSE herbicidal effect rating.
2.0

Given CCOC(=O)CN1C(=O)C(CC(=O)NS(=O)(=O)CC)SC1=Nc1cc(-n2c(=O)cc(C(F)(F)F)n(C)c2=O)c(F)cc1Cl (stereo not drawn) , state its recorded CYPSE herbicidal effect rating.
5.0

Given CCOC(=O)CN1C(=O)C(Cc2ccccc2OC(C)C(=O)O)S/C1=N/c1cc(-n2c(=O)cc(C(F)(F)F)n(C)c2=O)c(F)cc1Cl (stereo not drawn) , state its recorded CYPSE herbicidal effect rating.
4.5

* * *

Recorded Herbicidal rating CYPIR for the following compounds
Test system: CYPIR (Rice Flatsedge)
Experiment: Postemergence weed control under flooded paddy conditions
Type: in vivo, Cyperus iria
Applied conditions: Rate 0.2500 kg/ha, postemergence weeds, rated 3 to 4 weeks after treatment
Answer with a number only.

Cn1c(C(F)(F)F)cc(=O)n(-c2cc(N=C3SCC(=O)N3C3CCOC3=O)c(Cl)cc2F)c1=O (stereo not shown) [Compound 73]    6.0
Cn1c(C(F)(F)F)cc(=O)n(-c2cc(N=C3SCC(=O)N3CC(=O)OCC#N)c(Cl)cc2F)c1=O [Compound 109]    7.0
CCOC(=O)CN1C(=O)C(CC(=O)OC(C)C)SC1=Nc1cc(-n2c(=O)cc(C(F)(F)F)n(C)c2=O)c(F)cc1Cl (stereo not shown) [Compound 60]    6.0
COC(=O)C1(N2C(=O)CSC2=Nc2cc(-n3c(=O)cc(C(F)(F)F)n(C)c3=O)c(F)cc2Cl)CCCCC1 [Compound 81]    5.0

Given CN1C(=O)C(CC(=O)NS(C)(=O)=O)SC1=Nc1cc(-n2c(=O)cc(C(F)(F)F)n(C)c2=O)c(F)cc1Cl (stereo not shown) [Compound 97] , state its recorded Herbicidal rating CYPIR.
4.0

Given CCOC(=O)CN1C(=O)C(Cc2ccccc2OC(C)C(=O)O)S/C1=N/c1cc(-n2c(=O)cc(C(F)(F)F)n(C)c2=O)c(F)cc1Cl (stereo not shown) [Compound 114] , state its recorded Herbicidal rating CYPIR.
7.0

Given C=CCN1C(=O)C(CC(=O)O)SC1=Nc1cc(-n2c(=O)cc(C(F)(F)F)n(C)c2=O)c(F)cc1Cl (stereo not shown) [Compound 62] , state its recorded Herbicidal rating CYPIR.
9.0

* * *

Recorded SETVI rating for the following compounds
Test system: SETVI (Foxtail, Green)
Experiment: Preemergence herbicidal evaluation
Assay type: in vivo, Setaria viridis
Applied conditions: preemergence, 0.1250 kg/ha, rated 4-5 weeks after treatment, 0-9 scale
Answer with a number only.

Recorded SETVI rating, per entry:
CCS(=O)(=O)NC(=O)CC1SC(=Nc2cc(-n3c(=O)cc(C(F)(F)F)n(C)c3=O)c(F)cc2Cl)N(C)C1=O (stereo not drawn)    0.0
CCOC(=O)CN1C(=O)C(CC(=O)NS(=O)(=O)CC)SC1=Nc1cc(-n2c(=O)cc(C(F)(F)F)n(C)c2=O)c(F)cc1Cl (stereo not drawn)    3.0

Given "COC(=O)C1(N2C(=O)CSC2=Nc2cc(-n3c(=O)cc(C(F)(F)F)n(C)c3=O)c(F)cc2Cl)CCCCC1" , state its recorded SETVI rating.
0.0

Given C=CCN1C(=O)C(CC(=O)NOC)SC1=Nc1cc(-n2c(=O)cc(C(F)(F)F)n(C)c2=O)c(F)cc1Cl (stereo not drawn) , state its recorded SETVI rating.
0.0

Given CCOC(=O)CN1C(=O)C(CC(=O)OCCF)SC1=Nc1cc(-n2c(=O)cc(C(F)(F)F)n(C)c2=O)c(F)cc1Cl (stereo not drawn) , state its recorded SETVI rating.
9.0

Given "C=CCOC(=O)CN1C(=O)CSC1=Nc1cc(-n2c(=O)cc(C(F)(F)F)n(C)c2=O)c(F)cc1Cl" , state its recorded SETVI rating.
9.0

* * *

Recorded Preemergence herbicidal rating GALAP for the following compounds
System: GALAP (Galium)
Experiment: Preemergence herbicidal evaluation
Format: in vivo, Galium aparine
Applied conditions: rate 0.1250 kg/ha; rated 4-5 weeks after treatment
Answer with a number only.

Recorded Preemergence herbicidal rating GALAP, per entry:
C=CCN1C(=O)C(CC(=O)NS(=O)(=O)C(C)C)SC1=Nc1cc(-n2c(=O)cc(C(F)(F)F)n(C)c2=O)c(F)cc1Cl (stereo not shown) [Compound 118]    6.0
Cn1c(C(F)(F)F)cc(=O)n(-c2cc(N=C3SCC(=O)N3CC(=O)OCC#N)c(Cl)cc2F)c1=O [Compound 109]    4.0
CCOC(=O)CN1C(=O)C(CC(=O)OCc2ccccc2)OC1=Nc1cc(-n2c(=O)cc(C(F)(F)F)n(C)c2=O)c(F)cc1Cl (stereo not shown) [Compound 40]    0.0
Cn1c(C(F)(F)F)cc(=O)n(-c2cc(/N=C3/SCC(=O)N3CC(=O)O)c(Cl)cc2F)c1=O [Compound 52]    0.0
C=CCN1C(=O)C(CC(=O)OC(C)C)SC1=Nc1cc(-n2c(=O)cc(C(F)(F)F)n(C)c2=O)c(F)cc1Cl (stereo not shown) [Compound 66]    3.5

Given CCOC(=O)C(c1ccc(Cl)cc1)N1C(=O)CSC1=Nc1cc(-n2c(=O)cc(C(F)(F)F)n(C)c2=O)c(F)cc1Cl (racemic) [Compound 79] , state its recorded Preemergence herbicidal rating GALAP.
0.0

Given COC(=O)[C@H](Cc1ccc([N+](=O)[O-])cc1)N1C(=O)CSC1=Nc1cc(-n2c(=O)cc(C(F)(F)F)n(C)c2=O)c(F)cc1Cl [Compound 78] , state its recorded Preemergence herbicidal rating GALAP.
3.0

* * *

System: IPOHE (Morningglory, Ivyleaf)
Experiment: Postemergence herbicidal evaluation
Assay type: in vivo, Ipomoea hederacea
Applied conditions: postemergence, rate 0.0156 kg/ha
Measured endpoint: herbicidal rating IPOHE
Answer with a number only.

COc1ccc(CN2C(=O)CSC2=Nc2cc(-n3c(=O)cc(C(F)(F)F)n(C)c3=O)c(F)cc2Cl)cc1OC    3.0

Please state recorded herbicidal rating IPOHE (tested on IPOHE (Morningglory, Ivyleaf)) of "Cn1c(C(F)(F)F)cc(=O)n(-c2cc(N=C3SCC(=O)N3CC(=O)OCC3CC3)c(Cl)cc2F)c1=O"
9.0

Please state recorded herbicidal rating IPOHE (tested on IPOHE (Morningglory, Ivyleaf)) of "COCCN1C(=O)CSC1=Nc1cc(-n2c(=O)cc(C(F)(F)F)n(C)c2=O)c(F)cc1Cl"
2.0

Please state recorded herbicidal rating IPOHE (tested on IPOHE (Morningglory, Ivyleaf)) of CN1C(=O)C(CC(=O)NO)SC1=Nc1cc(-n2c(=O)cc(C(F)(F)F)n(C)c2=O)c(F)cc1Cl (stereo not shown)
9.0

Please state recorded herbicidal rating IPOHE (tested on IPOHE (Morningglory, Ivyleaf)) of "COc1ccc(CN2C(=O)CSC2=Nc2cc(-n3c(=O)cc(C(F)(F)F)n(C)c3=O)c(F)cc2Cl)c(OC)c1"
9.0

Please state recorded herbicidal rating IPOHE (tested on IPOHE (Morningglory, Ivyleaf)) of CCOC(=O)CN1C(=O)C(Cl)SC1=Nc1cc(-n2c(=O)cc(C(F)(F)F)n(C)c2=O)c(F)cc1Cl (stereo not shown)
9.0

Please state recorded herbicidal rating IPOHE (tested on IPOHE (Morningglory, Ivyleaf)) of "Cn1c(C(F)(F)F)cc(=O)n(-c2cc(N=C3SCC(=O)N3C3CC3)c(Cl)cc2F)c1=O"
7.0
